# Tested on: up to 32 different microorganisms
# PROTOCOL_SUMMARY: in vitro antibacterial activity (MIC), agar dilution on Brain Heart Infusion (BHI) agar with Steers replicator
# Format: cell-based
# PROTOCOL_CONDITIONS: Enterococcus faecism ATCC 8043 (code II); unit assumed
ENDPOINT: MIC (µg/mL)
One number for each entry, in µg/mL.

C=CCO[C@@]1(C)C[C@@H](C)C(=O)[C@H](C)[C@H]2N(C)C(=O)O[C@]2(C)[C@@H](CC)OC(=O)[C@H](C)C(=O)[C@H](C)[C@H]1O[C@@H]1O[C@H](C)C[C@H](N(C)C)[C@H]1O [Example 179] | 1.56
CC[C@H]1OC(=O)[C@H](C)C(=O)[C@H](C)[C@@H](O[C@@H]2O[C@H](C)C[C@H](N(C)C)[C@H]2O)[C@@](C)(OCC=Cc2ccc(Cl)cc2)C[C@@H](C)C(=O)[C@H](C)[C@@H](O)[C@]1(C)O [Example 17] | 1.56
CC[C@H]1OC(=O)[C@H](C)C(=O)[C@H](C)[C@@H](O[C@@H]2O[C@H](C)C[C@H](N(C)C)[C@H]2O)[C@@](C)(OCCNCCc2ccccc2)C[C@@H](C)C(=O)[C@H](C)[C@@H](O)[C@]1(C)O [Example 10] | 6.2

Proceed to the following item.
Input line: For CC[C@H]1OC(=O)[C@H](C)C(=O)[C@H](C)[C@@H](O[C@@H]2O[C@H](C)C[C@H](N(C)C)[C@H]2O)[C@@](C)(OCC=Cc2ccc(OC)cc2)C[C@@H](C)C(=O)[C@H](C)[C@@H](O)[C@]1(C)O [Example 16] , what is its reported MIC?
Output line: 0.78

Attribution: patent USRE39591E1
